# Test system: Wolbachia pipientis
# testName: Anti-Wolbachia Cell-Based Screen
# Format: functional
# Design: scale not given: in the data most compounds retested in dose-response had high values
# experimentalContext: 5 µM
Hit rate of the full screen: of about 48,000 compounds, about 13,000 (27%) showed an effect of 50% or more. Some of the results follow.
quantityName: Percent Effect (%)
The figure you give is taken to be in %; do not add the unit.

Look up Percent Effect for this compound: Cn1cc(C(=O)N2CCC(c3cc(CCO)n(C)n3)C2)cn1 (stereo not given)
181.5

Now try Cc1nccn1C1(C(=O)O)CCN(Cc2ccc3c(c2)OCCO3)CC1 .
-9.809

Now try CC(C)N(Cc1cccc(Cl)c1)Cc1nnsc1Cl .
2.005

Now try CN(C)[C@@H]1CN(C(=O)c2ccc(C#N)cc2)[C@@H]2CCCO[C@H]12.O=C(O)C(F)(F)F .
5.598

Now try CNc1oc(-c2ccc(S(=O)(=O)N(C)C)o2)nc1C#N .
100.4

Now try CC(C)C(=O)N1CCCC(c2cc(C(F)F)n3ncnc3n2)C1.Cl (stereo not given) .
-4.51

Now try CNS(=O)(=O)CCCNC(C)(C)c1nc(C)cs1 .
1.727

Now try Cn1nc(C2CCN(C(=O)c3cnccn3)C2)cc1CCO (stereo not given) .
76.91

Now try Cc1cc(C)cc(N(CCC#N)C(=O)CN2CCCC2c2cccs2)c1 (stereo not given) .
-27.93

Now try CNc1oc(-c2ccc(OC)c(S(=O)(=O)N3CCCCC3)c2)nc1C#N .
-6.371

Now try CC(C)Nc1oc(-c2ccc(S(=O)(=O)N(C)C)o2)nc1C#N .
118.4

Now try CCOc1ccc(C(=O)N2C[C@H]3CC[C@@H]2CN(C(=O)C2CCC2)C3)cc1 .
-22.33

Now try CCOc1ccc(C(=O)N(Cc2cnn(C)c2)C(C)C)cc1 .
-5.805

Now try COc1ccc(C(=O)N(Cc2cnn(C)c2)C(C)C)cc1Br .
9.999

Now try Cc1ccccc1CSc1nc(N)cc(N2C[C@H](O)[C@@H](N(C)C)C2)n1 .
-0.3306

Now try Cc1cnc(C(=O)N2CCCC(c3nccn3Cc3cscn3)C2)cn1 (stereo not given) .
3.931

Now try Cc1ccn(CCNc2ncnc3c2CCN(Cc2ncc[nH]2)CC3)n1 .
5.519

Now try CCC(c1nc(CC(C)C)nn1-c1ccccn1)n1cccn1 (stereo not given) .
-7.483

Now try Cc1nccn1-c1cc(CNC(=O)C2CCC(=O)NC2)ccn1 (stereo not given) .
-12.56

Now try Cc1nc(C2CCCN(C(=O)CO)C2)cc(N2CCOCC2)n1 (stereo not given) .
-8.444

Now try COc1cc(C(=O)N(Cc2cnn(C)c2)C(C)C)ccc1OC(C)C .
121.6

Now try O=C(CCN1CCCC1c1cccs1)N1CCc2sccc2C1 (stereo not given) .
2.808

Now try Cc1nc(C(=O)N2CCC(c3cc(CCO)n(C)n3)C2)co1 (stereo not given) .
113

Now try Cc1nc(NC(=O)COCC2CC2)ccc1Br .
-7.033

Now try COCC(=O)N1CCCC(c2cc(C(F)F)n3ncnc3n2)C1.Cl (stereo not given) .
109.8

Now try Cc1ccc(-c2cc(C(=O)NCCCc3csc(N)n3)[nH]n2)s1 .
-6.732

Now try COc1cc(CN2CCCCCC2c2cccs2)cc(OC)c1O (stereo not given) .
139

Now try CN(CC1=CCCN(Cc2cccc(C#N)c2)C1)C(=O)c1ccco1 .
6.358

Now try CN(C)S(=O)(=O)c1ccc(-c2nc(C#N)c(NC(C)(C)C)o2)o1.Cl .
93

Now try COc1cccc(CN2CCCC(Nc3cccc(F)c3)C2)c1O (stereo not given) .
-12.95

Now try CC(=O)NC[C@H]1COCc2nc3c(C)cccc3n21 .
4.229

Now try CCCNC(=O)CSCc1ccc(S(=O)(=O)N(C)C)o1 .
-0.4398

Now try CC(=O)CC(C)(C)NC(=O)CCN(C)Cc1ccc(Cl)s1 .
13.53

Now try COc1cc(C(=O)N(Cc2cnn(C)c2)C(C)C)ccc1OCC(N)=O .
4.705

Now try CCc1nc(C)sc1CN1CCc2[nH]nc(-c3ccc(F)c(F)c3)c2C1 .
80.67

Now try CC(C)(O)CCc1ccc(C(=O)NCCC2CCOC2)cc1 (stereo not given) .
-23.58

Now try CCOc1cncc(N(C)CC(=O)NC)n1 .
3.632

Now try O=C(C1CC=CC1)N1CC[C@@H]2O[C@H](COCC3CCOCC3)CC[C@@H]21 .
2.259

Now try Cc1ccc(CN2C[C@@H](N(C)C)[C@H]3OCCC[C@H]32)o1.O=C(O)C(F)(F)F.O=C(O)C(F)(F)F .
-10.94

Now try CCn1cc(CN2CCCn3nc(CNS(C)(=O)=O)cc3C2)c(C)n1 .
-7.534

Now try COc1ccc(C(=O)N(Cc2cnn(C)c2)C(C)C)cc1OC(F)F .
110.3

Now try CCOc1ccc(C(=O)N(Cc2cnn(C)c2)C(C)C)cc1OCC .
111.9

Now try COc1cc(C(=O)N(Cc2cnn(C)c2)C(C)C)ccc1C .
113.7

Now try CN(C)[C@@H]1CN(C(=O)CCc2ccccc2)[C@@H]2CCCO[C@H]12.O=C(O)C(F)(F)F .
98.44

Now try Cc1cc(NC(=O)NC(C)CN2CCN(c3ccccc3)CC2)on1 (stereo not given) .
-17.45
